meta.source: patent US5847092A

Reported MIC values for a set of molecules
Test system: Streptococcus pyogenes C 203
method: In vitro antibacterial activity, MIC, broth microdilution
Type: cell-based
test.conditions: Streptococcus pyogenes, C203; S. pyogenes C 203; MHB + 5% horse serum; 37° C., 18 hours; read-out: minimum inhibiting concentration MIC
endpoint.label: MIC (ng/mL)

| chemical.string | display.unit | result.number |
| --- | --- | --- |
| CC[C@H]1OC(=O)[C@H](C)[C@@H](O[C@H]2C[C@@](C)(OC)[C@@H](O)[C@H](C)O2)[C@H](C)[C@@H](O[C@@H]2O[C@H](C)C[C@H](N(C)C)[C@H]2O)[C@](C)(O)C[C@@H](C)/C(=N\OCCNCCCCCCNCc2ccc(F)cc2)[C@H](C)[C@@H](O)[C@]1(C)O | ng/mL | 3.9 |
| CC[C@H]1OC(=O)[C@H](C)[C@@H](O[C@H]2C[C@@](C)(OC)[C@@H](O)[C@H](C)O2)[C@H](C)[C@@H](O[C@@H]2O[C@H](C)C[C@H](N(C)C)[C@H]2O)[C@](C)(O)C[C@@H](C)/C(=N\OCCNCCCCCCNCc2cc(Cl)cc(Cl)c2O)[C@H](C)[C@@H](O)[C@]1(C)O | ng/mL | 15.6 |
| CC[C@H]1OC(=O)[C@H](C)[C@@H](O[C@H]2C[C@@](C)(OC)[C@@H](O)[C@H](C)O2)[C@H](C)[C@@H](O[C@@H]2O[C@H](C)C[C@H](N(C)C)[C@H]2O)[C@](C)(O)C[C@@H](C)/C(=N\OCCNCCCCCCCCNCc2ccccc2)[C@H](C)[C@@H](O)[C@]1(C)O | ng/mL | 3.9 |

###

Record type: MIC measurement. Applies to: Escherichia coli ATCC 25922
endpoint.label: MIC (µg/mL)

| compound | result.number |
| --- | --- |
| CC[C@H]1OC(=O)[C@H](C)[C@@H](O[C@H]2C[C@@](C)(OC)[C@@H](O)[C@H](C)O2)[C@H](C)[C@@H](O[C@@H]2O[C@H](C)C[C@H](N(C)C)[C@H]2O)[C@](C)(O)C[C@@H](C)/C(=N\OCCNCCCCCCNCc2ccc(C(F)(F)F)cc2)[C@H](C)[C@@H](O)[C@]1(C)O [Compound 23] | 1 |
| CC[C@H]1OC(=O)[C@H](C)[C@@H](O[C@H]2C[C@@](C)(OC)[C@@H](O)[C@H](C)O2)[C@H](C)[C@@H](O[C@@H]2O[C@H](C)C[C@H](N(C)C)[C@H]2O)[C@](C)(O)C[C@@H](C)/C(=N\OCCNCCNCc2ccccc2)[C@H](C)[C@@H](O)[C@]1(C)O [Compound 5] | 8 |
| CC[C@H]1OC(=O)[C@H](C)[C@@H](O[C@H]2C[C@@](C)(OC)[C@@H](O)[C@H](C)O2)[C@H](C)[C@@H](O[C@@H]2O[C@H](C)C[C@H](N(C)C)[C@H]2O)[C@](C)(O)C[C@@H](C)/C(=N\OCCNCCCCCCNCc2ccc3c(c2)OCO3)[C@H](C)[C@@H](O)[C@]1(C)O [Compound 18] | 2 |

###

Reported MIC values for a set of compounds
Test system: Streptococcus pyogenes C 203
method: In vitro antibacterial activity, MIC, broth microdilution
Assay type: cell-based
test.conditions: Streptococcus pyogenes, C203; S. pyogenes C 203; MHB + 5% horse serum; 37° C., 18 hours; read-out: minimum inhibiting concentration MIC
endpoint.label: MIC (µg/mL)

| chemical.string | result.number |
| --- | --- |
| CC[C@H]1OC(=O)[C@H](C)[C@@H](O[C@H]2C[C@@](C)(OC)[C@@H](O)[C@H](C)O2)[C@H](C)[C@@H](O[C@@H]2O[C@H](C)C[C@H](N(C)C)[C@H]2O)[C@](C)(O)C[C@@H](C)/C(=N\OCCNCCNCc2ccccc2)[C@H](C)[C@@H](O)[C@]1(C)O | 0.0156 |
| CC[C@H]1OC(=O)[C@H](C)[C@@H](O[C@H]2C[C@@](C)(OC)[C@@H](O)[C@H](C)O2)[C@H](C)[C@@H](O[C@@H]2O[C@H](C)C[C@H](N(C)C)[C@H]2O)[C@](C)(O)C[C@@H](C)/C(=N\OCCCNCCCCCCNCc2ccccc2)[C@H](C)[C@@H](O)[C@]1(C)O | 0.0312 |
